Hey, just so you know, these numbers are from patent US20170298395A1.

System: RubisCO
Assay type: cell-based, Ralstonia eutropha
Conditions: Table 12, chemoautotrophic (induced) growth
Please provide measured Chemoautotrophic RubisCO activity for the entries that follow.

// query Respond only with Chemoautotrophic RubisCO activity recorded for G205D (protein) MSSFLRALTLRQLQIFVTVARHASFVRAAEELHLTQPAVSMQVKQLESVVGMALFERVKGQLTLTEPGDRLLHHASRILGEVKDAEEGLQAVKDVEQGSITIGLISTSKYFAPKLLAGFTALHPGVDLRIAEGNRETLLRLLQDNAIDLALMGRPPRELDAVSEPIAAHPHVLVASPRHPLHDAKGFDLQELRHETFLLREPGSDTRTVAEYMFRDHLFTPAKVITLGSNETIKQAVMAGMGISLLSLHTLGLELRTGEIGLLDVAGTPIERIWHVAHMSSKRLSPASESCRAYLLEHTAEFLGREYGGLMPGRRVA
// result 54 nmol/min/mg of protein

// query Respond only with Chemoautotrophic RubisCO activity recorded for T232I (protein) MSSFLRALTLRQLQIFVTVARHASFVRAAEELHLTQPAVSMQVKQLESVVGMALFERVKGQLTLTEPGDRLLHHASRILGEVKDAEEGLQAVKDVEQGSITIGLISTSKYFAPKLLAGFTALHPGVDLRIAEGNRETLLRLLQDNAIDLALMGRPPRELDAVSEPIAAHPHVLVASPRHPLHDAKGFDLQELRHETFLLREPGSGTRTVAEYMFRDHLFTPAKVITLGSNEIIKQAVMAGMGISLLSLHTLGLELRTGEIGLLDVAGTPIERIWHVAHMSSKRLSPASESCRAYLLEHTAEFLGREYGGLMPGRRVA
// result 123 nmol/min/mg of protein

// query Respond only with Chemoautotrophic RubisCO activity recorded for L79F (protein) MSSFLRALTLRQLQIFVTVARHASFVRAAEELHLTQPAVSMQVKQLESVVGMALFERVKGQLTLTEPGDRLLHHASRIFGEVKDAEEGLQAVKDVEQGSITIGLISTSKYFAPKLLAGFTALHPGVDLRIAEGNRETLLRLLQDNAIDLALMGRPPRELDAVSEPIAAHPHVLVASPRHPLHDAKGFDLQELRHETFLLREPGSGTRTVAEYMFRDHLFTPAKVITLGSNETIKQAVMAGMGISLLSLHTLGLELRTGEIGLLDVAGTPIERIWHVAHMSSKRLSPASESCRAYLLEHTAEFLGREYGGLMPGRRVA
// result 304 nmol/min/mg of protein
